- Test system: panel of nearly 500 cancer cell lines
- assay: Cancer Cell Line Encyclopedia profiling, 3-day CellTiter-Glo
- Type: cell-based
- test-conditions: Homo sapiens, Jurkat
measured-endpoint: pIC50
Answers are plain numbers, as −log10 of the molar value.

Problem: # returns recorded pIC50 (system: panel of nearly 500 cancer cell lines) for CN(C)C(=O)c1cc2cnc(Nc3ccc(N4CCNCC4)cn3)nc2n1C1CCCC1
Result: 5.43

====

- Test system: VCAP
- assay: cells
- Assay type: cell-based
- test-conditions: Homo sapiens, 72 h
measured-endpoint: IC50

Problem: // query IC50 value for entry CN(C)C(=O)c1cc2cnc(Nc3ccc(N4CCNCC4)cn3)nc2n1C1CCCC1 [Ribociclib]
Result: > 10 µM

====

- Tested on: panel of nearly 500 cancer cell lines
- assay: Cancer Cell Line Encyclopedia profiling, 3-day CellTiter-Glo
- Type: cell-based
- test-conditions: Homo sapiens, 8305C
measured-endpoint: IC50

Problem: # returns recorded IC50 (system: panel of nearly 500 cancer cell lines) for CN(C)C(=O)c1cc2cnc(Nc3ccc(N4CCNCC4)cn3)nc2n1C1CCCC1
Result: > 8 µM

====

- Test system: panel of nearly 500 cancer cell lines
- assay: Cancer Cell Line Encyclopedia profiling, 3-day CellTiter-Glo
- Format: cell-based
- test-conditions: NCI-H322
measured-endpoint: IC50

Problem: // query IC50 value for entry CN(C)C(=O)c1cc2cnc(Nc3ccc(N4CCNCC4)cn3)nc2n1C1CCCC1
Result: > 8 µM

====

- Test system: panel of nearly 500 cancer cell lines
- assay: Cancer Cell Line Encyclopedia profiling, 3-day CellTiter-Glo
- Type: cell-based
- test-conditions: rkn (soft_tissue); read-out: IC50
pIC50: −log10 of the molar value.
measured-endpoint: pIC50

Problem: // query pIC50 value for entry CC(=O)c1c(C)c2cnc(Nc3ccc(N4CCNCC4)cn3)nc2n(C2CCCC2)c1=O [Palbociblib]
Result: < 5.10

====

Consider the following compounds; for each one, report its pEC50.
- System: panel of nearly 500 cancer cell lines
- assay: Cancer Cell Line Encyclopedia profiling, 3-day CellTiter-Glo
- Assay type: cell-based
- test-conditions: IGR-39
pEC50: −log10 of the molar value.

compound | result
CC(=O)c1c(C)c2cnc(Nc3ccc(N4CCNCC4)cn3)nc2n(C2CCCC2)c1=O [Palbociclib, reference compound] | < 5.10

Proceeding to the next compound to report its pEC50.
Problem: // query pEC50 value for entry CN(C)C(=O)c1cc2cnc(Nc3ccc(N4CCNCC4)cn3)nc2n1C1CCCC1 [Ribociclib]
Result: < 5.10

====

- System: panel of nearly 500 cancer cell lines
- assay: Cancer Cell Line Encyclopedia profiling, 3-day CellTiter-Glo
- Assay type: cell-based
- test-conditions: QGP-1
measured-endpoint: EC50
Could you write the number and then its unit?

Problem: // query EC50 value for entry CN(C)C(=O)c1cc2cnc(Nc3ccc(N4CCNCC4)cn3)nc2n1C1CCCC1 [Ribociclib]
Result: 309 nM

====

- System: panel of nearly 500 cancer cell lines
- assay: Cancer Cell Line Encyclopedia profiling, 3-day CellTiter-Glo
- Format: cell-based
- test-conditions: Homo sapiens, MFE-296
measured-endpoint: pIC50
Give bare numbers, as −log10 of the molar value.

Problem: // query pIC50 value for entry CN(C)C(=O)c1cc2cnc(Nc3ccc(N4CCNCC4)cn3)nc2n1C1CCCC1
Result: 6.07
